# assayed_system: Protein phosphatase 3 catalytic subunit alpha (Homo sapiens); note: in other assays of this panel Not Active means under 50% inhibition at 10 µM;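 note: inhibition of calcineurin (PP2B) enzyme activity, measured with DiFMUP as the substrate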
# Design: species or system Escherichia coli
quantity_measured: IC50

Some solved cases for reference:
O=C(O)c1cc(-c2ccc(F)cc2F)ccc1O
Not Active
CC(C)C[C@H]1C(=O)N2CCC[C@H]2[C@]2(O)O[C@](NC(=O)[C@@H]3C=C4c5cccc6[nH]cc(c56)C[C@H]4N(C)C3)(C(C)C)C(=O)N12
Not Active
Cc1ccc(C)c(OCCCC(C)(C)C(=O)O)c1
Not Active
CN(C)C(=O)Oc1cccc([N+](C)(C)C)c1.[Br-] [NEOSTIGMINE BROMIDE]
Not Active
CN1CCCC(CN2c3ccccc3Sc3ccccc32)C1 (stereo not drawn)
Not Active

Ask | Please report IC50 for the following compound: Cc1cc(O)cc(C)c1Cl
Reply | Not Active

Ask | Please report IC50 for the following compound: CCN(C(C)=O)c1cccc(-c2ccnc3c(C#N)cnn23)c1
Reply | Not Active

Ask | Please report IC50 for the following compound: CC1=NN(c2ccccc2)C(=O)C1
Reply | Not Active

Ask | Please report IC50 for the following compound: CCCCC1=NC2(CCCC2)C(=O)N1Cc1ccc(-c2ccccc2-c2nnn[nH]2)cc1
Reply | Not Active

Ask | Please report IC50 for the following compound: CS(=O)(=O)Nc1ccc([N+](=O)[O-])cc1Oc1ccccc1 [NIMESULIDE]
Reply | Not Active

Ask | Please report IC50 for the following compound: CN1CCN(CCCN2c3ccccc3Sc3ccc(C(F)(F)F)cc32)CC1
Reply | Not Active

Ask | Please report IC50 for the following compound: ClC(Cl)(Cl)Cl [CARBON TETRACHLORIDE]
Reply | Not Active

Ask | Please report IC50 for the following compound: NCCCNCCSP(=O)(O)O
Reply | Not Active

Ask | Please report IC50 for the following compound: CC(=O)OCC(=O)[C@@]1(O)CC[C@H]2[C@@H]3CCC4=CC(=O)CC[C@]4(C)[C@@]3(F)[C@@H](O)C[C@@]21C [FLUDROCORTISONE ACETATE]
Reply | Not Active

Ask | Please report IC50 for the following compound: NC12CC3CC(CC(C3)C1)C2
Reply | Not Active

====

# assayed_system: Vasopressin V1a receptor (Homo sapiens, UniProt P37288); note: in other assays of this panel Not Active means under 50% inhibition at 10 µM
# Sequence (P37288 whole entry): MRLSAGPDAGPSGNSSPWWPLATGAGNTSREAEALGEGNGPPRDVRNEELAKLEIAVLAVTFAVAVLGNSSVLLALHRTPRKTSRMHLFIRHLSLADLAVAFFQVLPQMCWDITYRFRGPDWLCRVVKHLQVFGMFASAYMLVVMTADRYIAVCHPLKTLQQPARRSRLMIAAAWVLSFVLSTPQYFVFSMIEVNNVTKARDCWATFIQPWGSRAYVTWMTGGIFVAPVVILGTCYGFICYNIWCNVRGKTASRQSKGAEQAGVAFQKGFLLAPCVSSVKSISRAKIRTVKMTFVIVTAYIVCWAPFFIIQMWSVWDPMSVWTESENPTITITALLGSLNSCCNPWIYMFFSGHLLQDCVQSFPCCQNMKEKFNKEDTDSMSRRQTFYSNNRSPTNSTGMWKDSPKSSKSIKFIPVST
# Assay type: cell membranes, Membrane
# measurement_setup: hek293
quantity_measured: IC50

CN(C)C(=O)C(CCN1CCC(O)(c2ccc(Cl)cc2)CC1)(c1ccccc1)c1ccccc1 [LOPERAMIDE]
Not Active
C[C@]12C=CC(=O)C=C1CC[C@H]1[C@@H]3C[C@@H](O)[C@](O)(C(=O)CO)[C@@]3(C)C[C@H](O)[C@@]12F
Not Active
CN1C(=O)CN=C(c2ccccc2)c2cc([N+](=O)[O-])ccc21
Not Active

====

# assayed_system: Sodium-dependent noradrenaline transporter (Homo sapiens, UniProt P23975)
# Sequence (P23975 whole entry): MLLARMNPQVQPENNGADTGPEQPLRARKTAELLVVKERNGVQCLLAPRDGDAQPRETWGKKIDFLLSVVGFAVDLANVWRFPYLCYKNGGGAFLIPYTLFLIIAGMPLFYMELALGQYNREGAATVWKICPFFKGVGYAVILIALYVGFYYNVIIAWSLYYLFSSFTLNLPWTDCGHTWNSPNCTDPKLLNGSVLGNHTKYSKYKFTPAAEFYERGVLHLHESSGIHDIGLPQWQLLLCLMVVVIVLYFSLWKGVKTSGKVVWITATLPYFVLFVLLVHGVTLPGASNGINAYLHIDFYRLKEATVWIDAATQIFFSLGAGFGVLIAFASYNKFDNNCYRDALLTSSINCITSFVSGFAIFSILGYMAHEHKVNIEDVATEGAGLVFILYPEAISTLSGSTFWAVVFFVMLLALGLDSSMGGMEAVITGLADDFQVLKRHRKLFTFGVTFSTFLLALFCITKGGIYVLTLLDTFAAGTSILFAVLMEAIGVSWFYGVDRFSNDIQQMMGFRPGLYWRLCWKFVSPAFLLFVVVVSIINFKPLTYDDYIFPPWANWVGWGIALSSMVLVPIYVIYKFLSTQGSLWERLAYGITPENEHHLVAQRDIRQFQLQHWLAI
# assay_info: DRUGMATRIX: Norepinephrine Transporter radioligand binding (ligand: [125I] RTI-55)
# Format: cell membranes, MDCK, Membrane
# measurement_setup: mdck; Not Active = under 50% inhibition at 10 µM
quantity_measured: IC50

Some solved cases for reference:
O=C(O)c1ccccc1O
Not Active
C[S+]([O-])c1ccc(-c2nc(-c3ccncc3)c(-c3ccc(F)cc3)[nH]2)cc1 (configuration not stated)
Not Active
C[C@]12CC[C@H]3[C@@H](CCC4=CC(=O)CC[C@@H]43)[C@@H]1CC[C@@H]2O
Not Active
O=C(O)CCNC(=O)c1ccc(/N=N/c2ccc(O)c(C(=O)O)c2)cc1 [BALSALAZIDE]
Not Active

Ask | Please report IC50 for the following molecule: CC(C)(C)NCC(O)COc1cccc2c1CC(O)C(O)C2 (configuration not stated)
Reply | Not Active

Ask | Please report IC50 for the following molecule: C[N+](C)(C)CCOC(=O)CCC(=O)OCC[N+](C)(C)C.[Cl-].[Cl-] [SUCCINYLCHOLINE CHLORIDE]
Reply | Not Active

Ask | Please report IC50 for the following molecule: CNC1=Nc2ccc(Cl)cc2C(c2ccccc2)=[N+]([O-])C1 [CHLORDIAZEPOXIDE]
Reply | Not Active

Ask | Please report IC50 for the following molecule: CC(C)c1c(C(=O)Nc2ccccc2)c(-c2ccccc2)c(-c2ccc(F)cc2)n1CC[C@@H](O)C[C@@H](O)CC(=O)O
Reply | Not Active

Ask | Please report IC50 for the following molecule: C#C[C@]1(O)CC[C@H]2[C@@H]3CCC4=CC(=O)CC[C@]4(C)[C@H]3CC[C@@]21C
Reply | Not Active

Ask | Please report IC50 for the following molecule: O=c1[nH]c(=O)n(C2CCCO2)cc1F (configuration not stated)
Reply | Not Active

Ask | Please report IC50 for the following molecule: CC(=O)OCC(=O)[C@@]1(O)CC[C@H]2[C@@H]3CCC4=CC(=O)CC[C@]4(C)[C@@]3(F)[C@@H](O)C[C@@]21C [FLUDROCORTISONE ACETATE]
Reply | Not Active

Ask | Please report IC50 for the following molecule: CC(=O)Oc1ccccc1C(=O)O
Reply | Not Active

Ask | Please report IC50 for the following molecule: O=C1C[C@@H]2OCC=C3CN4CC[C@]56c7ccccc7N1[C@H]5[C@H]2[C@H]3C[C@H]46
Reply | Not Active

Ask | Please report IC50 for the following molecule: CC(C)NCC(O)c1ccccc1Cl (configuration not stated)
Reply | Not Active

Ask | Please report IC50 for the following molecule: CCn1cc(C(=O)O)c(=O)c2cc(F)c(N3CCNC(C)C3)c(F)c21 (configuration not stated)
Reply | Not Active

Ask | Please report IC50 for the following molecule: CC(C)(C(=O)O)c1ccc(C(O)CCCN2CCC(C(O)(c3ccccc3)c3ccccc3)CC2)cc1 (configuration not stated) [FEXOFENADINE]
Reply | Not Active

Ask | Please report IC50 for the following molecule: COc1cc(OC)c(C(=O)CCCN2CCCC2)c(OC)c1
Reply | Not Active

====

# assayed_system: Epidermal growth factor receptor (Homo sapiens)
# Sequence (P00533 whole entry): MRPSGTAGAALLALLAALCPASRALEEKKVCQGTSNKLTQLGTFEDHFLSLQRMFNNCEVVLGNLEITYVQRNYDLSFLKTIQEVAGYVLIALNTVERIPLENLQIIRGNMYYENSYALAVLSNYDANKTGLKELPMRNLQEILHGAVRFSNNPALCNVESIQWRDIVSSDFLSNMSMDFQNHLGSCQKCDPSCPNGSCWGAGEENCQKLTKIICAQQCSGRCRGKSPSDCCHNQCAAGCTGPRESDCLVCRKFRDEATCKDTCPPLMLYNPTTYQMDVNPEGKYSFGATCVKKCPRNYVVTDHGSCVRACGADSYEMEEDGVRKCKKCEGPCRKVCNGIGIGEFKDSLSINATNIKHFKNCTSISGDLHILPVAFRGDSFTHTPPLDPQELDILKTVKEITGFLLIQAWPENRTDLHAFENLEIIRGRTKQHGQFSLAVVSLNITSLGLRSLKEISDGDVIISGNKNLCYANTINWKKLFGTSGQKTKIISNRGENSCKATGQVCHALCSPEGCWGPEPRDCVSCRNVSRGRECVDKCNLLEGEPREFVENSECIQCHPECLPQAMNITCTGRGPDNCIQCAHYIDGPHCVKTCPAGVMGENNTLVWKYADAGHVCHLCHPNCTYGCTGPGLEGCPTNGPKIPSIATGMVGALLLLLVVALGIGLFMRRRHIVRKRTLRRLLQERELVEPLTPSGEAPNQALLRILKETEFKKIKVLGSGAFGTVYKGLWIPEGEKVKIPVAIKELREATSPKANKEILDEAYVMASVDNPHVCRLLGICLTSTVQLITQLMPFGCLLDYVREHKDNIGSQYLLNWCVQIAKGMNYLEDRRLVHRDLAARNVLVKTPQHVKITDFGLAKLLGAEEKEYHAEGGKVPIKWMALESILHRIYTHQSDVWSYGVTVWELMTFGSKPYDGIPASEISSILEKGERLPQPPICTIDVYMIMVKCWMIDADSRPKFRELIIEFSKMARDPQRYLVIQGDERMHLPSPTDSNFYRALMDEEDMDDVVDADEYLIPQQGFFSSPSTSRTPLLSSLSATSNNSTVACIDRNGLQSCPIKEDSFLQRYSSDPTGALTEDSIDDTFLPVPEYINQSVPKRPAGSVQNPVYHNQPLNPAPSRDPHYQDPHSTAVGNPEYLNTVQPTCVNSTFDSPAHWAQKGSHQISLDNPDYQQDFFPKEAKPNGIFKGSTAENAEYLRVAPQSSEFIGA
# assay_info: DRUGMATRIX: Protein Tyrosine Kinase, EGF Receptor enzyme inhibition (substrate: Poly(Glu:Tyr))
# Assay type: cell-based, Insect cells
# measurement_setup: Not Active = under 50% inhibition at 10 µM; read-out: IC50
IC50 listing for selected compounds.
Response body: numeric value in µM, unit text excluded.

Some solved cases for reference:
CCCCCCCCNC(C)C(O)c1ccc(SC(C)C)cc1 (centres undefined) [SULOCTIDIL]
0.794
CCOc1nc2cccc(C(=O)O)c2n1Cc1ccc(-c2ccccc2-c2nnn[nH]2)cc1
3.28
Clc1ccc(COC(Cn2ccnc2)c2ccc(Cl)cc2Cl)c(Cl)c1 (centres undefined) [MICONAZOLE]
29.3

Ask | Please report IC50 for the following compound: Cc1c(O)cccc1C(=O)N[C@@H](CSc1ccccc1)[C@H](O)CN1C[C@H]2CCCC[C@H]2C[C@H]1C(=O)NC(C)(C)C
Reply | 55.6

====

# assay_info: DRUGMATRIX: Sodium/nucleoside co-transporter radioligand binding (ligand: nitrobenzylthioinosine)
# Format: cell membranes, Cavia porcellus, Dunkin-Hartley, Cerebral cortex, Membrane
# measurement_setup: Not Active = under 50% inhibition at 10 µM; read-out: IC50
quantity_measured: IC50 (µM)
Response body: numeric value in µM, unit text excluded.

Ask | Please report IC50 for the following molecule: C[C@]12C=CC(=O)C=C1CC[C@@H]1[C@@H]2C(=O)C[C@@]2(C)[C@H]1CC[C@]2(O)C(=O)CO
Reply | 4.95

====

# assay_info: DRUGMATRIX: GABAA, Chloride Channel, TBOB radioligand binding (ligand: [3H] TBOB)
# Assay type: cell membranes, Rattus norvegicus, Wistar, Cerebral cortex, Membrane
# measurement_setup: Not Active = under 50% inhibition at 10 µM
quantity_measured: Ki

TRANSPLATIN
Not Active
ZIRCONIUM(IV) CHLORIDE
Not Active
COBALTOUS CHLORIDE
Not Active
COLISTIN
Not Active

====

# assayed_system: Prostaglandin G/H synthase 1 (Homo sapiens, UniProt P23219); note: in other assays of this panel Not Active means under 50% inhibition at 10 µM;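 note: inhibition of COX-1 enzyme activity, with arachidonic acid supplied as substrate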
# Sequence (P23219 whole entry): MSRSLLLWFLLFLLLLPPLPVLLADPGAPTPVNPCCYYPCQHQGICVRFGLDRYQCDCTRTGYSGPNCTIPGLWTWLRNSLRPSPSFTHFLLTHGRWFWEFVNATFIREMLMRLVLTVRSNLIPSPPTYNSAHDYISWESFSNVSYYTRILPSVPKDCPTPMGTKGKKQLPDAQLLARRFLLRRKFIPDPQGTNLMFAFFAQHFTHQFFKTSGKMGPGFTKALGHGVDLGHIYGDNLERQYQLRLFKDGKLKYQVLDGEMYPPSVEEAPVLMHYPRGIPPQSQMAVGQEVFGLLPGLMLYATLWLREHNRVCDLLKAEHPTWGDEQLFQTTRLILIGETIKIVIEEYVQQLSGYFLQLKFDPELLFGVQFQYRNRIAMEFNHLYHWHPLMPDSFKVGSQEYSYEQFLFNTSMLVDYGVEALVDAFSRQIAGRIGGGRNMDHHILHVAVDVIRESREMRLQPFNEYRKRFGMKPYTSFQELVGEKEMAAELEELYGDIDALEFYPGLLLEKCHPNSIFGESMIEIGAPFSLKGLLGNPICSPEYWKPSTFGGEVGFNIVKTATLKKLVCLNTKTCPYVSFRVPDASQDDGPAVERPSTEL
# assay_info: biochemical
# Format: tissue-based, Platelet
# measurement_setup: read-out: IC50
quantity_measured: pIC50
# pIC50: negative log10 of molar concentration; output just the value

Cc1ccc(C(=O)c2ccc(CC(=O)O)n2C)cc1
7.39

Ask | Please report pIC50 for the following molecule: COc1ccccc1N
Reply | 5.50

====

# assayed_system: Adenosine receptor A2a (Homo sapiens, UniProt P29274)
# Sequence (P29274 whole entry): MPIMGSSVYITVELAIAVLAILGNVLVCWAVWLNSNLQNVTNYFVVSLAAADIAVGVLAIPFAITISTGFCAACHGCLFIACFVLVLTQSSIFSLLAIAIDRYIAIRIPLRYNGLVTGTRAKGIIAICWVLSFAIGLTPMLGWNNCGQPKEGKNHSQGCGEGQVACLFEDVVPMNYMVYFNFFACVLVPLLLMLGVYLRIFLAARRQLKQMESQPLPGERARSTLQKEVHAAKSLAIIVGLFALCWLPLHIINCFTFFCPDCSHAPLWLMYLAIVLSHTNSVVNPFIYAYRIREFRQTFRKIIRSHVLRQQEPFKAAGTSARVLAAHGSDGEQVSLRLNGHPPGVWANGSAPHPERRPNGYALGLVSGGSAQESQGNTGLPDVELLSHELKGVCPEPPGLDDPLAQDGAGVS
# assay_info: DRUGMATRIX: Adenosine A2A radioligand binding (ligand: […])
# Format: cell membranes, HEK293, Membrane
# measurement_setup: Not Active = under 50% inhibition at 10 µM; read-out: Ki
Ki listing for selected molecules.
# output: number + unit

Ask | Please report Ki for the following molecule: O=c1c(-c2ccc(O)cc2)coc2cc(O)cc(O)c12
Reply | 9.79 µM

Ask | Please report Ki for the following molecule: C[S+]([O-])c1ccc(-c2nc(-c3ccncc3)c(-c3ccc(F)cc3)[nH]2)cc1 (configuration not stated)
Reply | 3.41 µM
